# Tested on: COLO 205 colon
# protocol: NCI-60 one-dose screen, 48 h (100 = growth as untreated, 0 = no growth, -100 = all killed)
# condition.label: 10 µM unless noted
The panel holds about 83,000 compounds, 20% with a hit somewhere; the sample as a whole holds those more often.
This section presents compounds with their documented growth values.
Form entry: value (%) — number only.

Solved cases (3 shown):
N/C(=N\c1nc2c(Cl)cc(Cl)cc2s1)C(Cl)(Cl)Cl :: -16
CS(=O)(=O)c1ccc(-c2nc3ccccn3c2/C=N/Nc2nc(-c3ccc(Br)cc3)cs2)cc1 :: 116
COc1ccc2[nH]cc(-c3cc(N)n4nc(-c5c[nH]c6ccc(OC)cc56)cc4n3)c2c1 :: -54.3

Item under review: COc1cc(/C=C/C(=O)c2cc(OC)c(OC)c(OC)c2)ccc1Oc1nc(NCCO)nc(N2CCOCC2)n1 . Reported growth?
3.69

Record: NC(=O)c1cc(-c2ccc3ncnc(N4CCc5cc(F)c(Cl)cc54)c3c2)cnc1N
54.8

Record: CC(O)C(NC(=O)C1CCCN1C(=O)CNC(=O)C1CC(=O)NCC(=O)NC(Cc2c[nH]c3ccccc23)C(=O)NC(Cc2ccc(O)cc2)C(=O)NCC(=O)NC(CO)C(=O)NC(CCC(N)=O)C(=O)NC(Cc2c[nH]c3ccccc23)C(=O)N1)C(=O)NCC(=O)NC(CCC(N)=O)C(=O)NC(CCCNC(=N)N)C(=O)NC(CC(=O)O)C(=O)O (centres undefined)
109

###

# System: HOP-92 NSCLC
# protocol: NCI-60 one-dose screen, 48 h (100 = growth as untreated, 0 = no growth, -100 = all killed)
# condition.label: 10 µM unless noted
The panel holds about 83,000 compounds, 20% with a hit somewhere; the sample as a whole holds those more often.
This section presents compounds with their documented growth values.
Form entry: value (%) — number only.

Solved cases (2 shown):
CC(=O)Oc1ccccc1C(=O)Nc1ccc(C(=O)/C=C/c2ccncc2)cc1 :: 66.1
O=C1[C@H]2Cc3c([nH]c4ccccc34)[C@@H](c3ccc(Br)cc3)N2C(=O)CN1C1CCN(Cc2ccccc2)CC1 :: 28.9

Item under review: N#Cc1c(-c2ccc(Cl)cc2)nc2c(-c3ccccc3)c(Nc3ccccc3)nn2c1N . Reported growth?
35.2

Record: O=C(CSc1nc2sc3c(c2c(=O)n1-c1ccc(Cl)cc1)CCCC3)N/N=C/c1ccc(F)cc1
97.3

Record: CC(C)(C)Nc1nc2c(OCCc3ccccc3)cccn2c1-c1ccc(O)cc1
28.3

Record: N#Cc1c(-c2ccc(Cl)cc2)nc(SCc2ccc(F)cc2)nc1N1CCNCC1
6.64

Record: c1ccc2c(NCCCn3ccnc3)c3oc4ccccc4c3nc2c1
-23.7

###

# System: 786-0 renal
# protocol: NCI-60 one-dose screen, 48 h
# condition.label: 10 µM unless noted
This is part of a sample that, as a whole, favours compounds with a hit. Of some 83,000 tested, about 20% had one in any assay. Calls of active or inactive are those of the source. How the source made its calls: active means growth percent below 10; inactive means the rest.
Lab note: assign the record to one of active, inactive

N#Cc1nc(-c2ccccc2)oc1S(N)(=O)=O :: inactive

State the result this test recorded for CCN1CCN(/C(=N\c2sc(-c3ccccc3)nc2-c2ccccc2)c2ccccc2)CC1 .
inactive

Record: COc1cccc(COc2ccc(/C=C3/C(=O)Nc4cc(Cl)ccc43)cc2)c1
inactive

Record: CCOC(=O)c1sc(N)c(C(=O)OCC)c1C
inactive

Record: Cc1cccc2sc(/N=C(\N)C(Cl)(Cl)Cl)nc12
inactive

Record: NS(=O)(=O)c1ccc(Nc2nc(Nc3ccccc3)nc(-n3nc(-c4ccccc4)cc3-c3ccccc3)n2)cc1
inactive

Record: NS(=O)(=O)c1cccc(Nc2nc(SCC(=O)c3ccc(Br)cc3)nc3ccccc23)c1
inactive

Record: O=C(N/N=C/c1ccc(Cl)s1)c1[nH]c2ccc(Br)cc2c1-c1ccccc1
active

Record: CCCC(=O)NC(c1cccnc1)c1cc(C)c2cccnc2c1O (stereo not given)
inactive

Record: Clc1ccc2c(NCCCn3ccnc3)c3oc4ccc(Cl)cc4c3nc2c1
inactive

These measurements were taken from PubChem BioAssay (NCI).
